molecular target: PIK3Cβ_h (Homo sapiens)
Sequence (P42338 whole entry): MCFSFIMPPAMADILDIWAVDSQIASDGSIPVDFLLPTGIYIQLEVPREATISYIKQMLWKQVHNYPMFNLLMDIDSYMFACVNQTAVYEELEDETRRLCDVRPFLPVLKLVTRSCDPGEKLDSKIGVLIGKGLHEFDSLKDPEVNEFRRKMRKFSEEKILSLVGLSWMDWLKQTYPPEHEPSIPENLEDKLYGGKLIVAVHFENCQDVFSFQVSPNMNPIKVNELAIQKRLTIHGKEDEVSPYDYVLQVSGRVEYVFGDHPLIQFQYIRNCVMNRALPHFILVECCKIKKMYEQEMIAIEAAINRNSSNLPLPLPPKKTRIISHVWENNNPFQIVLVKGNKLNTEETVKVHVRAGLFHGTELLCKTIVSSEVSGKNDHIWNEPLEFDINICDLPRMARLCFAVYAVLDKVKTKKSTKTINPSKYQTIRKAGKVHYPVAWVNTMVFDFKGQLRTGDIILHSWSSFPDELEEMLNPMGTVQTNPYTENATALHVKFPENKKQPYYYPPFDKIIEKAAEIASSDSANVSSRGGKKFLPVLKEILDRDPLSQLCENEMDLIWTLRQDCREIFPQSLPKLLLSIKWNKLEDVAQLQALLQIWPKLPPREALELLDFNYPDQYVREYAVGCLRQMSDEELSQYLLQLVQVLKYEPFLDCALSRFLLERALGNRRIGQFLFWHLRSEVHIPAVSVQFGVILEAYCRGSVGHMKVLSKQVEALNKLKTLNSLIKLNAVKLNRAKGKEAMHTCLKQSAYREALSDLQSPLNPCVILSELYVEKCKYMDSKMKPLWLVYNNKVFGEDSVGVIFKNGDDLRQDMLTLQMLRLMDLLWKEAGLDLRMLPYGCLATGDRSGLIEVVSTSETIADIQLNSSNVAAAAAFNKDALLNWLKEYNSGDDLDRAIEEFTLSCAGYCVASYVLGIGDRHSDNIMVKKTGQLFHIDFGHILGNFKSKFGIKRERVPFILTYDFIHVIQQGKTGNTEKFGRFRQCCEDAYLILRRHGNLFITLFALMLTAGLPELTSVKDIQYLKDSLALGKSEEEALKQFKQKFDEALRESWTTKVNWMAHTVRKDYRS
pKd: −log10 of the molar value.
Property Label: pKd

Cc1c(Cn2c(CN3CCS(=O)(=O)CC3)nc3cnc(N4CCOCC4)cc32)cccc1C(F)(F)F [Compound 8]	7.96
Cc1c(Cn2c(CN3CC(O)C3)nc3cnc(N4CCOCC4)cc32)cccc1C(F)(F)F [Compound 7]	8.52
Cc1c(Cn2c(CO)nc3cnc(N4CCOCC4)cc32)cccc1C(F)(F)F [Compound 6]	9.00
Cc1c(Cn2c(CN3CC4(CC(O)C4)C3)nc3cnc(N4CCOCC4)cc32)cccc1C(F)(F)F [Compound 3]	9.00
Cc1c(Cn2c(C)nc3cnc(C4=CCOCC4)cc32)cccc1C(F)(F)F [Compound 13]	8.52

P = Cc1cccc(Cn2c(C)nc3c(N)nc(C4=CCOCC4)cc32)c1C [Compound 12]
Q = Cc1c(Cn2c(C)nc3c(N)nc(C4=CCOCC4)cc32)cccc1C(F)(F)F [Compound 4]
Looking only at measured pKd, which entry is lower, P or Q ? Please identify the chosen entry by its label.
Q

I = Cc1c(Cn2c(C)nc3cnc(N4CCOCC4)cc32)cccc1C(F)(F)F [Compound 2]
II = Cc1c(F)cccc1Cn1c(C)nc2c(N)nc(C3=CCOCC3)cc21 [Compound 14]
Of I and II , which carries the smaller reported pKd figure? Give the label of your selection.
II
(II: 7.96, I: 8.70)
